Would you mind telling me the reported IC50 of each entry?
# tgt: Telomerase reverse transcriptase (Homo sapiens)
# Sequence (O14746 whole entry): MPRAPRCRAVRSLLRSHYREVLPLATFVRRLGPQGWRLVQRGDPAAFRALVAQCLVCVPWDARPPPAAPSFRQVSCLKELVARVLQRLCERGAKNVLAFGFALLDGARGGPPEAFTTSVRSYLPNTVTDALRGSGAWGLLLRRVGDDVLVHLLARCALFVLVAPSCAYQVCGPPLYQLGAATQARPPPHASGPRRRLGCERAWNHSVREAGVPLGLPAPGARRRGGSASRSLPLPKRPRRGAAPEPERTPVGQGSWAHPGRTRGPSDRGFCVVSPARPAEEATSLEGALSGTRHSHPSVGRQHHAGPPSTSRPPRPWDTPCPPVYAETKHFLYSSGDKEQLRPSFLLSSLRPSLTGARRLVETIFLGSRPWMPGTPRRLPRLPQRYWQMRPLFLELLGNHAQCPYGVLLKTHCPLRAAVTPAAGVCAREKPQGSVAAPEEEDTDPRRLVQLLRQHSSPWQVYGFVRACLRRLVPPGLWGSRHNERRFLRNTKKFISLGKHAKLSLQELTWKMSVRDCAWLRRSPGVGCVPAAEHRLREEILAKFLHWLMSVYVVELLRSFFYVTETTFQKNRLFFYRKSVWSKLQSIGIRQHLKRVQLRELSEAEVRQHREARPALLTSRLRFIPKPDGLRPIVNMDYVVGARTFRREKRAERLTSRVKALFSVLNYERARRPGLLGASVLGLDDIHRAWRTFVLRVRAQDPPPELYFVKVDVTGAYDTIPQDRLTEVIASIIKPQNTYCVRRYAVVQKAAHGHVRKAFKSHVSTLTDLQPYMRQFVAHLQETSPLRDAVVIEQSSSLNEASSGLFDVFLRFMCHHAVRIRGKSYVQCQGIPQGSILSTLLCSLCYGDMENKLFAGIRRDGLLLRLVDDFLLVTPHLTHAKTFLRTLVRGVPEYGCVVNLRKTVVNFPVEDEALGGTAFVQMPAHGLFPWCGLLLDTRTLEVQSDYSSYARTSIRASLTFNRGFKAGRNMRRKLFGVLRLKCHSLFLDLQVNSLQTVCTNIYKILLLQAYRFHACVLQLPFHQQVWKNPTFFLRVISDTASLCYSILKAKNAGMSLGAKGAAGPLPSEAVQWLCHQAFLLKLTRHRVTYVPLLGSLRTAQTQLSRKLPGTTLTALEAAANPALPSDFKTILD
# protocol_details: Inhibition of G-quadruplex-induced human TERT in H1299 cells by TRAP assay
All answers are understood in µM, so give the number only.

[ask] Which IC50 value is on record for O=C(CCN1CCCC1)Nc1ccc2c(c1)C(=O)c1cc(NC(=O)CCN3CCCC3)ccc1C2=O ?
[reply] 6.7

[ask] Which IC50 value is on record for O=C(CCN1CCCCC1)Nc1ccc2c(c1)C(=O)c1cc(NC(=O)CCN3CCCCC3)ccc1C2=O ?
[reply] 8.4

---

# tgt: Telomerase reverse transcriptase (Homo sapiens)
# protocol_details: Effect on human TERT expressed in H1299 cells at 1 uM after 24 hrs by SEAP assay relative to control
Would you mind telling me the reported residual activity of each entry?
All answers are understood in %, so give the number only.

[ask] Which residual activity value is on record for CCCCNCC(=O)Nc1ccc2c(c1)C(=O)c1cc(NC(=O)CNCCCC)ccc1C2=O ?
[reply] 77

[ask] Which residual activity value is on record for CN1CCN(CC(=O)Nc2ccc3c(c2)C(=O)c2cc(NC(=O)CN4CCN(C)CC4)ccc2C3=O)CC1 ?
[reply] 76

[ask] Which residual activity value is on record for O=C1c2ccc(NC(=O)C3CC3)cc2C(=O)c2cc(NC(=O)C3CC3)ccc21 ?
[reply] 80

[ask] Which residual activity value is on record for O=C1c2ccc(NC(=O)C3CCCC3)cc2C(=O)c2cc(NC(=O)C3CCCC3)ccc21 ?
[reply] 83

[ask] Which residual activity value is on record for CC(C)NCC(=O)Nc1ccc2c(c1)C(=O)c1cc(NC(=O)CNC(C)C)ccc1C2=O ?
[reply] 73

[ask] Which residual activity value is on record for CC(C)CNCC(=O)Nc1ccc2c(c1)C(=O)c1cc(NC(=O)CNCC(C)C)ccc1C2=O ?
[reply] 73

[ask] Which residual activity value is on record for O=C(CCl)Nc1ccc2c(c1)C(=O)c1cc(NC(=O)CCl)ccc1C2=O ?
[reply] 72

[ask] Which residual activity value is on record for O=C(CCc1ccccc1)Nc1ccc2c(c1)C(=O)c1cc(NC(=O)CCc3ccccc3)ccc1C2=O ?
[reply] 89

[ask] Which residual activity value is on record for Nc1ccc2c(c1)C(=O)c1cc(N)ccc1C2=O ?
[reply] 87

[ask] Which residual activity value is on record for O=C(CCN1CCCCC1)Nc1ccc2c(c1)C(=O)c1cc(NC(=O)CCN3CCCCC3)ccc1C2=O ?
[reply] 55

[ask] Which residual activity value is on record for CN1CCN(CCC(=O)Nc2ccc3c(c2)C(=O)c2cc(NC(=O)CCN4CCN(C)CC4)ccc2C3=O)CC1 ?
[reply] 75

[ask] Which residual activity value is on record for CCCNCCC(=O)Nc1ccc2c(c1)C(=O)c1cc(NC(=O)CCNCCC)ccc1C2=O ?
[reply] 52

[ask] Which residual activity value is on record for CCNCC(=O)Nc1ccc2c(c1)C(=O)c1cc(NC(=O)CNCC)ccc1C2=O ?
[reply] 60

[ask] Which residual activity value is on record for CCCCNCCC(=O)Nc1ccc2c(c1)C(=O)c1cc(NC(=O)CCNCCCC)ccc1C2=O ?
[reply] 56

[ask] Which residual activity value is on record for CCN(CC)CC(=O)Nc1ccc2c(c1)C(=O)c1cc(NC(=O)CN(CC)CC)ccc1C2=O ?
[reply] 90

[ask] Which residual activity value is on record for CCCNCC(=O)Nc1ccc2c(c1)C(=O)c1cc(NC(=O)CNCCC)ccc1C2=O ?
[reply] 73

[ask] Which residual activity value is on record for O=C(CCN1CCCC1)Nc1ccc2c(c1)C(=O)c1cc(NC(=O)CCN3CCCC3)ccc1C2=O ?
[reply] 73

[ask] Which residual activity value is on record for O=C1c2ccc(NC(=O)C3CCCCC3)cc2C(=O)c2cc(NC(=O)C3CCCCC3)ccc21 ?
[reply] 96

[ask] Which residual activity value is on record for O=C(CN1CCCC1)Nc1ccc2c(c1)C(=O)c1cc(NC(=O)CN3CCCC3)ccc1C2=O ?
[reply] 88

---

# protocol_details: Cytotoxicity against human TERT immortalized BJ1 cells at 10 uM after 48 hrs by MTT assay relative to control
# Type: cell-based, BJ
Label fulfilled when viability at 48 h, 10 µM is strictly below 60%; at or above that, label not fulfilled.

[ask] Threshold test, viability at 48 h, 10 µM < 60%: CCC(=O)Nc1ccc2c(c1)C(=O)c1cc(NC(=O)CC)ccc1C2=O
[reply] fulfilled

[ask] Threshold test, viability at 48 h, 10 µM < 60%: O=C(CN1CCNCC1)Nc1ccc2c(c1)C(=O)c1cc(NC(=O)CN3CCNCC3)ccc1C2=O
[reply] not fulfilled

[ask] Threshold test, viability at 48 h, 10 µM < 60%: CC(C)CNCC(=O)Nc1ccc2c(c1)C(=O)c1cc(NC(=O)CNCC(C)C)ccc1C2=O
[reply] fulfilled

[ask] Threshold test, viability at 48 h, 10 µM < 60%: CC(=O)Nc1ccc2c(c1)C(=O)c1cc(NC(C)=O)ccc1C2=O
[reply] not fulfilled

[ask] Threshold test, viability at 48 h, 10 µM < 60%: O=C(Cc1ccccc1)Nc1ccc2c(c1)C(=O)c1cc(NC(=O)Cc3ccccc3)ccc1C2=O
[reply] not fulfilled

[ask] Threshold test, viability at 48 h, 10 µM < 60%: Nc1ccc2c(c1)C(=O)c1cc(N)ccc1C2=O
[reply] not fulfilled

[ask] Threshold test, viability at 48 h, 10 µM < 60%: CCCNCC(=O)Nc1ccc2c(c1)C(=O)c1cc(NC(=O)CNCCC)ccc1C2=O
[reply] fulfilled

[ask] Threshold test, viability at 48 h, 10 µM < 60%: O=C(CCN1CCCCC1)Nc1ccc2c(c1)C(=O)c1cc(NC(=O)CCN3CCCCC3)ccc1C2=O
[reply] fulfilled

[ask] Threshold test, viability at 48 h, 10 µM < 60%: CN1CCN(CCC(=O)Nc2ccc3c(c2)C(=O)c2cc(NC(=O)CCN4CCN(C)CC4)ccc2C3=O)CC1
[reply] not fulfilled

[ask] Threshold test, viability at 48 h, 10 µM < 60%: O=C(CCCCl)Nc1ccc2c(c1)C(=O)c1cc(NC(=O)CCCCl)ccc1C2=O
[reply] not fulfilled

---

Would you mind telling me the reported residual activity of each entry?
# tgt: Telomerase reverse transcriptase (Homo sapiens)
# protocol_details: Effect on human TERT expressed in BJ1 cells at 100 uM after 24 hrs by SEAP assay relative to control
# condition_parameters: BJ
All answers are understood in %, so give the number only.

[ask] Report residual activity for O=C(CCl)Nc1ccc2c(c1)C(=O)c1cc(NC(=O)CCl)ccc1C2=O tested on Telomerase reverse transcriptase (Homo sapiens).
[reply] 135

[ask] Report residual activity for CCN(CC)CC(=O)Nc1ccc2c(c1)C(=O)c1cc(NC(=O)CN(CC)CC)ccc1C2=O tested on Telomerase reverse transcriptase (Homo sapiens).
[reply] 116

[ask] Report residual activity for O=C(CCc1ccccc1)Nc1ccc2c(c1)C(=O)c1cc(NC(=O)CCc3ccccc3)ccc1C2=O tested on Telomerase reverse transcriptase (Homo sapiens).
[reply] 43

[ask] Report residual activity for CN1CCN(CC(=O)Nc2ccc3c(c2)C(=O)c2cc(NC(=O)CN4CCN(C)CC4)ccc2C3=O)CC1 tested on Telomerase reverse transcriptase (Homo sapiens).
[reply] 97

[ask] Report residual activity for O=C1c2ccc(NC(=O)C3CCCC3)cc2C(=O)c2cc(NC(=O)C3CCCC3)ccc21 tested on Telomerase reverse transcriptase (Homo sapiens).
[reply] 108

---

Would you mind telling me the reported viability at 10 µM of each entry?
# protocol_details: Cytotoxicity against human H1299 cells at 10 uM after 48 hrs by MTT assay realtive to control
# Format: functional
# condition_parameters: NCI-H1299, 48 h
All answers are understood in %, so give the number only.

[ask] Which viability at 10 µM value is on record for O=C(CN1CCCCC1)Nc1ccc2c(c1)C(=O)c1cc(NC(=O)CN3CCCCC3)ccc1C2=O ?
[reply] 37

[ask] Which viability at 10 µM value is on record for CN(C)CCC(=O)Nc1ccc2c(c1)C(=O)c1cc(NC(=O)CCN(C)C)ccc1C2=O ?
[reply] 53

[ask] Which viability at 10 µM value is on record for O=C(CCN1CCNCC1)Nc1ccc2c(c1)C(=O)c1cc(NC(=O)CCN3CCNCC3)ccc1C2=O ?
[reply] 94

[ask] Which viability at 10 µM value is on record for O=C(Cc1ccccc1)Nc1ccc2c(c1)C(=O)c1cc(NC(=O)Cc3ccccc3)ccc1C2=O ?
[reply] 96

[ask] Which viability at 10 µM value is on record for CCCNCC(=O)Nc1ccc2c(c1)C(=O)c1cc(NC(=O)CNCCC)ccc1C2=O ?
[reply] 54

[ask] Which viability at 10 µM value is on record for O=C(CCCl)Nc1ccc2c(c1)C(=O)c1cc(NC(=O)CCCl)ccc1C2=O ?
[reply] 44

[ask] Which viability at 10 µM value is on record for O=C(CN1CCNCC1)Nc1ccc2c(c1)C(=O)c1cc(NC(=O)CN3CCNCC3)ccc1C2=O ?
[reply] 85

[ask] Which viability at 10 µM value is on record for O=C1c2ccc(NC(=O)C3CCCC3)cc2C(=O)c2cc(NC(=O)C3CCCC3)ccc21 ?
[reply] 77

[ask] Which viability at 10 µM value is on record for O=C(CCCCl)Nc1ccc2c(c1)C(=O)c1cc(NC(=O)CCCCl)ccc1C2=O ?
[reply] 40
